target: HLA-A*02:01 (Homo sapiens, UniProt P04439, D140Y/D185E/D98H/E176V/E277Q/G131W/G231S/I119V/I121R/I166T/I218V/L300P/L318F/N151K/N90K/P208A/P217A/Q86G/Q94H/R138H/R169H/T345S); construct: made in house; test: MHC binding assay: UV-ligand exchange with β2m ELISA (peptide exchange yield); details: binding to HLA-A*02:01 evaluated by peptide exchange yield (UV-ligand exchange, β2m ELISA)
Assay readout: Peptide exchange

| Substance | Peptide exchange |
| --- | --- |
| 158 (YLDPLWHQL; listed as Homo sapiens) [compound 158] | +++ (≧50 = +++) |
| 146 (VVAAHLAGA; listed as Homo sapiens) [compound 146] | ++ (≧20% = ++) |
| 45 (FLPVSVVYV; listed as Homo sapiens) [compound 45] | +++ (≧50 = +++) |
| 254 (ALGDKFLLRV; listed as Homo sapiens) [compound 254] | ++ (≧20% = ++) |
| 170 (FIAAVVEKV; listed as Homo sapiens) [compound 170] | ++ (≧20% = ++) |

**Query** Tell me its Peptide exchange given 226 (SLAGNLQEL; listed as Homo sapiens) [compound 226] as the entry.
**Result** +++ (≧50 = +++)

**Query** Report Peptide exchange, nothing else, for this substance: 255 (FLMKNSDLYGA; listed as Homo sapiens) [compound 255]
**Result** +++ (≧50 = +++)

**Query** Give me measured Peptide exchange, please, for this substance: 171 (LLLLDVPTA; listed as Homo sapiens) [compound 171]
**Result** ++ (≧20% = ++)

**Query** Give me measured Peptide exchange, please, for this substance: 153 (KLVELEHTL; listed as Homo sapiens) [compound 153]
**Result** +++ (≧50 = +++)

###

target: HLA-A*02:01 (Homo sapiens, UniProt P04439, D140Y/D185E/D98H/E176V/E277Q/G131W/G231S/I119V/I121R/I166T/I218V/L300P/L318F/N151K/N90K/P208A/P217A/Q86G/Q94H/R138H/R169H/T345S); construct: made in house; assay: MHC binding assay: UV-ligand exchange with β2m ELISA (peptide exchange yield); details: binding to HLA-A*02:01 evaluated by peptide exchange yield (UV-ligand exchange, β2m ELISA)
Assay readout: Peptide exchange

Worked cases, Peptide exchange given:
| Substance | Peptide exchange |
| --- | --- |
| 121 (ALYVQAPTV; listed as Homo sapiens) [compound 121] | ++ (≧20% = ++) |
| 261 (GLAALAVHL; listed as Homo sapiens) [compound 261] | +++ (≧50 = +++) |
| 244 (NVAEIVIHI; listed as Homo sapiens) [compound 244] | +++ (≧50 = +++) |
| 145 (ALEEKLENV; listed as Homo sapiens) [compound 145] | +++ (≧50 = +++) |
| 168 (VIFEGEPMYL; listed as Homo sapiens) [compound 168] | +++ (≧50 = +++) |
| 185 (TLYQGLPAEV; listed as Homo sapiens) [compound 185] | ++ (≧20% = ++) |

**Query** Provide Peptide exchange value for the following substance: 183 (ALSYILPYL; listed as Homo sapiens) [compound 183]
**Result** +++ (≧50 = +++)

**Query** Quote Peptide exchange reported for 76 (FTAEFLEKV; listed as Homo sapiens) [compound 76] please.
**Result** +++ (≧50 = +++)

**Query** Return Peptide exchange for the following substance: 41 (IVTEIISEI; listed as Homo sapiens) [compound 41]
**Result** +++ (≧50 = +++)

**Query** Return the recorded Peptide exchange value; entry: 181 (LLWAPTAQA; listed as Homo sapiens) [compound 181]
**Result** +++ (≧50 = +++)

**Query** Look up Peptide exchange of 50 (ILLSVLHQL; listed as Homo sapiens) [compound 50] and report it.
**Result** +++ (≧50 = +++)

**Query** For the substance 84 (FLLEREQLL; listed as Homo sapiens) [compound 84] , give its measured Peptide exchange value.
**Result** ++++ (≧75% = ++++)

**Query** Check the records and state Peptide exchange for 176 (VQSGLRILL; listed as Homo sapiens) [compound 176]
**Result** ++ (≧20% = ++)

**Query** Please list Peptide exchange recorded for the substance 192 (TLLPSSGLVTL; listed as Homo sapiens) [compound 192]
**Result** ++ (≧20% = ++)

**Query** Respond only with Peptide exchange recorded for 239 (VIIKGLEEITV; listed as Homo sapiens) [compound 239]
**Result** +++ (≧50 = +++)

**Query** Indicate the recorded Peptide exchange value for this substance: 86 (SLFSNIESV; listed as Homo sapiens) [compound 86]
**Result** +++ (≧50 = +++)

**Query** Identify measured Peptide exchange corresponding to 215 (QIADIVTSV; listed as Homo sapiens) [compound 215]
**Result** ++ (≧20% = ++)

**Query** Quick one: give measured Peptide exchange for 105 (AMLASQTEA; listed as Homo sapiens) [compound 105]
**Result** ++ (≧20% = ++)

**Query** Supply measured Peptide exchange of 282 (SLYALHVKA; listed as Homo sapiens) [compound 282] in your reply.
**Result** ++ (≧20% = ++)

**Query** Return reported Peptide exchange. Input substance: 165 (SLLDYEVSI; listed as Homo sapiens) [compound 165]
**Result** +++ (≧50 = +++)

###

target: HLA-A*02:01 (Homo sapiens, UniProt P04439, D140Y/D185E/D98H/E176V/E277Q/G131W/G231S/I119V/I121R/I166T/I218V/L300P/L318F/N151K/N90K/P208A/P217A/Q86G/Q94H/R138H/R169H/T345S); construct: made in house; assay: MHC binding assay: UV-ligand exchange with β2m ELISA (peptide exchange yield); settings: binding to HLA-A*02:01 evaluated by peptide exchange yield (UV-ligand exchange, β2m ELISA)
Assay readout: Peptide exchange

| Substance | Meas value |
| --- | --- |
| 228 (SLLELDGINLRL; listed as Homo sapiens) [compound 228] | +++ (≧50 = +++) |
| 60 (YLFSQGLQGL; listed as Homo sapiens) [compound 60] | +++ (≧50 = +++) |
| 150 (VLLDMVHSL; listed as Homo sapiens) [compound 150] | +++ (≧50 = +++) |
| 131 (SLYPHFTLL; listed as Homo sapiens) [compound 131] | +++ (≧50 = +++) |
| 37 (QIVELIEKI; listed as Homo sapiens) [compound 37] | ++ (≧20% = ++) |

**Query** Provide measured Peptide exchange value, entry: 264 (TLHDQVHLL; listed as Homo sapiens) [compound 264]
**Result** ++ (≧20% = ++)

**Query** For the substance 100 (ALQSFEFRV; listed as Homo sapiens) [compound 100] , give its reported Peptide exchange.
**Result** +++ (≧50 = +++)

**Query** Report Peptide exchange, nothing else, for this substance: 148 (YLILSSHQL; listed as Homo sapiens) [compound 148]
**Result** +++ (≧50 = +++)

**Query** Return the recorded Peptide exchange value; entry: 87 (KLLSLLEEA; listed as Homo sapiens) [compound 87]
**Result** +++ (≧50 = +++)
